# TEST_TARGET: UniProtKB P01116
# PROTOCOL: Binding to KRAS by surface plasmon resonance (SPR), Single Cycle Kinetics
# MEASUREMENT_SETUP: SPR Single Cycle Kinetics, GDP-bound KRAS wild-type protein, 1:1 binding model; read-out: KRAS KD
Where a SMILES comes first, the peptide text is derived from it. Bridges are numbered along the chain shown (N, C = ends). [ ]: non-standard residue; d: D form. The star is where a group is joined. hPhe(3-Cl-4-CF3) = N[C@@H](CCc1ccc(C(F)(F)F)c(Cl)c1)C(=O)O; NPrPhe(4-CF3) = CCCN[C@@H](Cc1ccc(C(F)(F)F)cc1)C(=O)O; NMeGly(cPent) = CN[C@H](C(=O)O)C1CCCC1; Pro(4,4-F2) = O=C(O)[C@@H]1CC(F)(F)CN1; NMeD = CN[C@@H](CC(=O)O)C(=O)O; NMeL = CN[C@@H](CC(C)C)C(=O)O; Morpholide = C1CN(*)CCO1; Ac5c = NC1(C(=O)O)CCCC1; Sar = CNCC(=O)O
MEASUREMENT_LABEL: Kd (nM)
Numbers only; they are read as nM.

*Q* Look up and report measured Kd for this entry: CCCN1C(=O)CN(C)C(=O)CN(C)C(=O)[C@H]([C@@H](C)CC)NC(=O)[C@H](CC(C)C)N(C)C(=O)C[C@@H](C(=O)N2CCOCC2)N(C)C(=O)[C@H](C2CCCC2)N(C)C(=O)C2(CCCC2)NC(=O)[C@@H]2CC(F)(F)CN2C(=O)[C@H](CCc2ccc(C(F)(F)F)c(Cl)c2)NC(=O)CN(C)C(=O)[C@@H]1Cc1ccc(C(F)(F)F)cc1 [PP0195] ([NMeL]I[Sar][Sar][NPrPhe(4-CF3)][Sar][hPhe(3-Cl-4-CF3)][Pro(4,4-F2)][Ac5c][NMeGly(cPent)][NMeD]-Morpholide; lactam N-11)
*A* 0.091

====

# TEST_TARGET: GDP-bound KRAS wild-type protein (Homo sapiens, UniProt P01116)
# Sequence (P01116 whole entry): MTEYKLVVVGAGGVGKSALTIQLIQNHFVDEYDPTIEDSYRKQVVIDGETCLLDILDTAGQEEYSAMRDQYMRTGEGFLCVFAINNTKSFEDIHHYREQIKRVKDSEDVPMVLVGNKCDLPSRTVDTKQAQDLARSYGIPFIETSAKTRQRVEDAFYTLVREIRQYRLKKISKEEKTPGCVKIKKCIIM
# PROTOCOL: Binding to KRAS by surface plasmon resonance (SPR), Single Cycle Kinetics
# MEASUREMENT_SETUP: SPR, Single Cycle Kinetics, GDP-bound KRAS wild-type protein; read-out: KRAS KD
pKd: −log10 of the molar value.
Please use t whenever pKd is not below 9, and f whenever it is.

Examples with answers:
COMPOUND	ANSWER_LABEL
CCO[C@@H]1C[C@H]2C(=O)NC3(CCC3)C(=O)N(C)[C@@H](C3CCCC3)C(=O)N(CC)[C@H](C(=O)N3CCOCC3)CC(=O)N(C)[C@@H](CCC(F)F)C(=O)N[C@@H]([C@@H](C)CC)C(=O)N(C)CC(=O)N(C)[C@H]3CCCCCN(C3=O)[C@@H](Cc3ccc(C(F)(F)F)cc3)C(=O)N(C)CC(=O)N[C@@H](CCc3cc(F)c(C(F)(F)F)c(F)c3)C(=O)N2C1 [PP0948]	f
CC[C@H](C)[C@@H]1NC(=O)[C@H](CC(C)C)N(C)C(=O)C[C@@H](C(=O)N(C)C)N(C)C(=O)[C@H](C2CCCC2)N(C)C(=O)C2(CCC2)NC(=O)[C@@H]2CC(F)(F)CN2C(=O)[C@H](CCc2ccc(C(F)(F)F)c(Cl)c2)NC(=O)CN(C)C(=O)[C@H](Cc2ccc(F)cc2)N2CCCCC[C@@H](C2=O)N(C)C(=O)CN(C)C1=O [PP0973]	t
CCC[C@H]1C(=O)N[C@@H]([C@@H](C)CC)C(=O)N(C)CC(=O)N(C)[C@H]2C/C=C\CCN(C2=O)[C@@H](CC2CCC(F)(F)CC2)C(=O)N(C)CC(=O)N[C@@H](CCc2ccc(C(F)(F)F)c(OC)c2)C(=O)N2C[C@H](OCC)C[C@H]2C(=O)N(C)C2(CCC2)C(=O)N(C)[C@@H](C2CCCC2)C(=O)N(C)[C@H](C(=O)N(C)C)CC(=O)N1C [PP2348]	t
C#CC[C@H]1C(=O)N[C@@H]([C@@H](C)CC)C(=O)N(C)CC(=O)N(C)[C@H]2C/C=C\CCN(C2=O)[C@@H](Cc2ccc(C(F)(F)F)cc2)C(=O)N(C)CC(=O)N[C@@H](CCc2cc(F)c(C(F)(F)F)c(F)c2)C(=O)N2C[C@H](F)C[C@H]2C(=O)NC2(CC(C)(C)C2)C(=O)N(C)[C@@H](C2CCCC2)C(=O)N(C)[C@H](C(=O)N(C)CCC)CC(=O)N1C [PP1692]	t

*Q* Could you verify whether the entry CCC[C@H]1C(=O)N[C@@H]([C@@H](C)CC)C(=O)N(C)CC(=O)N(C)[C@H]2C/C=C\CCN(C2=O)[C@@H](Cc2ccc(C)cc2)C(=O)N(C)CC(=O)N[C@@H](CCc2ccc(C(F)(F)F)c(Cl)c2)C(=O)N2C[C@@H](C)C[C@H]2C(=O)NC2(CCC2)C(=O)N(C)[C@@H](C2CCCC2)C(=O)N(C)[C@H](C(=O)N(C)CC)CC(=O)N1C [PP1848] shows pKd of no less than 9?
*A* t
